- EXPERIMENTAL DETAILS: total protein half-life in vivo (active degradation + dilution); higher = more stable protein
- MEASUREMENT PARAMETERS: wild type E. coli NCM3722; growth: C-lim chemostat; doubling time 12 h
ENDPOINT LABEL: total protein half-life in vivo (h)

1. MKKLALILFMGTLVSFYADAGRKPCSGSKGGISHCTAGGKFVCNDGSISASKKTCTN [P0ACW4]    4.67
2. MSQLTHINAAGEAHMVDVSAKAETVREARAEAFVTMRSETLAMIIDGRHHKGDVFATARIAGIQAAKRTWDLIPLCHPLMLSKVEVNLQAEPEHNRVRIETLCRLTGKTGVEMEALTAASVAALTIYDMCKAVQKDMVIGPVRLLAKSGGKSGDFKVEADD [P0A738]    8.28
3. MPPRRYNPDTRRDELLERINLDIPGAVAQALREDLGGTVDANNDITAKLLPENSRSHATVITRENGVFCGKRWVEEVFIQLAGDDVTIIWHVDDGDVINANQSLFELEGPSRVLLTGERTALNFVQTLSGVASKVRHYVELLEGTNTQLLDTRKTLPGLRSALKYAVLCGGGANHRLGLSDAFLIKENHIIASGSVRQAVEKASWLHPDAPVEVEVENLEELDEALKAGADIIMLDNFETEQMREAVKRTNGKALLEVSGNVTDKTLREFAETGVDFISVGALTKHVQALDLSMRFR    8.46
4. MTMSLEVFEKLEAKVQQAIDTITLLQMEIEELKEKNNSLSQEVQNAQHQREELERENNHLKEQQNGWQERLQALLGRMEEV [P0AF36]    8.02
5. MTNNPLIPQSKLPQLGTTIFTQMSALAQQHQAINLSQGFPDFDGPRYLQERLAHHVAQGANQYAPMTGVQALREAIAQKTERLYGYQPDADSDITVTAGATEALYAAITALVRNGDEVICFDPSYDSYAPAIALSGGIVKRMALQPPHFRVDWQEFAALLSERTRLVILNTPHNPSATVWQQADFAALWQAIAGHEIFVISDEVYEHINFSQQGHASVLAHPQLRERAVAVSSFGKTYHMTGWKVGYCVAPAPISAEIRKVHQYLTFSVNTPAQLALADMLRAEPEHYLALPDFYRQKRDILVNALNESRLEILPCEGTYFLLVDYSAVSTLDDVEFCQWLTQEHGVAAIPLSVFCADPFPHKLIRLCFAKKESTLLAAAERLRQL    5.92
6. MVTFHTNHGDIVIKTFDDKAPETVKNFLDYCREGFYNNTIFHRVINGFMIQGGGFEPGMKQKATKEPIKNEANNGLKNTRGTLAMARTQAPHSATAQFFINVVDNDFLNFSGESLQGWGYCVFAEVVDGMDVVDKIKGVATGRSGMHQDVPKEDVIIESVTVSE    9.92
7. MDFNLNDEQELFVAGIRELMASENWEAYFAECDRDSVYPERFVKALADMGIDSLLIPEEHGGLDAGFVTLAAVWMELGRLGAPTYVLYQLPGGFNTFLREGTQEQIDKIMAFRGTGKQMWNSAITEPGAGSDVGSLKTTYTRRNGKIYLNGSKCFITSSAYTPYIVVMARDGASPDKPVYTEWFVDMSKPGIKVTKLEKLGLRMDSCCEITFDDVELDEKDMFGREGNGFNRVKEEFDHERFLVALTNYGTAMCAFEDAARYANQRVQFGEAIGRFQLIQEKFAHMAIKLNSMKNMLYEAAWKADNGTITSGDAAMCKYFCANAAFEVVDSAMQVLGGVGIAGNHRISRFWRDLRVDRVSGGSDEMQILTLGRAVLKQYR    7.41
8. MKKNQFLKESDVTAESVFFMKRRQVLKALGISATALSLPHAAHADLLSWFKGNDRPPAPAGKALEFSKPAAWQNNLPLTPADKVSGYNNFYEFGLDKADPAANAGSLKTDPWTLKISGEVAKPLTLDHDDLTRRFPLEERIYRMRCVEAWSMVVPWIGFPLHKLLALAEPTSNAKYVAFETIYAPEQMPGQQDRFIGGGLKYPYVEGLRLDEAMHPLTLMTVGVYGKALPPQNGAPVRLIVPWKYGFKGIKSIVSIKLTRERPPTTWNLAAPDEYGFYANVNPYVDHPRWSQATERFIGSGGILDVQRQPTLLFNGYAAQVASLYRGLDLRENF    8.4
9. MGGISIWQLLIIAVIVVLLFGTKKLGSIGSDLGASIKGFKKAMSDDEPKQDKTSQDADFTAKTIADKQADTNQEQAKTEDAKRHDKEQV    9.34
10. MNDIAHNLAQVRDKISAAATRCGRSPEEITLLAVSKTKPASAIAEAIDAGQRQFGENYVQEGVDKIRHFQELGVTGLEWHFIGPLQSNKSRLVAEHFDWCHTIDRLRIATRLNDQRPAELPPLNVLIQINISDENSKSGIQLAELDELAAAVAELPRLRLRGLMAIPAPESEYVRQFEVARQMAVAFAGLKTRYPHIDTLSLGMSDDMEAAIAAGSTMVRIGTAIFGARDYSKK    8.8
11. MPKLRLIGLTLLALSATAVSHAEETRYVSDELNTWVRSGPGDHYRLVGTVNAGEEVTLLQTDANTNYAQVKDSSGRTAWIPLKQLSTEPSLRSRVPDLENQVKTLTDKLTNIDNTWNQRTAEMQQKVAQSDSVINGLKEENQKLKNELIVAQKKVDAASVQLDDKQRTIIMQWFMYGGGVLGLGLLLGLVLPHLIPSRKRKDRWMN [P0ADT8]    11.1
12. MRKSVIAIIIIVLVVLYMSVFVVKEGERGITLRFGKVLRDDDNKPLVYEPGLHFKIPFIETVKMLDARIQTMDNQADRFVTKEKKDLIVDSYIKWRISDFSRYYLATGGGDISQAEVLLKRKFSDRLRSEIGRLDVKDIVTDSRGRLTLEVRDALNSGSAGTEDEVTTPAADNAIAEAAERVTAETKGKVPVINPNSMAALGIEVVDVRIKQINLPTEVSEAIYNRMRAEREAVARRHRSQGQEEAEKLRATADYEVTRTLAEAERQGRIMRGEGDAEAAKLFADAFSKDPDFYAFIRSLRAYENSFSGNQDVMVMSPDSDFFRYMKTPTSATR [P0ABC3]    11.7
